Method: logP determination by HPLC on reverse-phase column (EEC Directive 79/831 Annex V.A8)
Format: physicochemical
Condition summary: reverse-phase C18 HPLC column; HPLC reverse-phase C 18, 43° C., pH 2.7, 0.1% aqueous formic acid and acetonitrile
Label true when chromatographic logP is strictly below 0.9; otherwise label false.

q: Threshold test, chromatographic logP < 0.9: COC(=O)c1cnn2c(O)c(-c3ncc(Cl)cc3Cl)c(O)nc12 [IV-2]
a: true

q: Strictly below 0.9 in chromatographic logP? COC(=O)c1cnn2c(Cl)c(-n3nc(C)cc3C)c(Cl)nc12 [Example V-1]
a: false

q: Confirm or reject: chromatographic logP of COC(=O)c1cnn2c(Cl)c(-c3ncc(Cl)cc3Cl)c(Cl)nc12 [Example V-2] lies strictly below 0.9
a: false

q: # TODO verify chromatographic logP < 0.9 strictly for this compound: COC(=O)c1cnn2c(NCC(F)(F)F)c(-n3nc(C(F)(F)F)cc3C(F)(F)F)c(Cl)nc12 [VI-2]
a: false

q: Is it true that chromatographic logP reported for COC(=O)c1cnn2c(O)c(-n3nc(C)cc3C)c(O)nc12 [IV-1] is less than 0.9?
a: true
